molecular target: purified biotin-tagged human CD36 (human, UniProt P16671 30-439, limits assumed, biotin tag, site not stated); test: AlphaScreen competition; competitor 1G04 on acceptor beads;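 note: streptavidin donor beads excited at 680 nm release singlet oxygen, and the light signal needs a nearby acceptor bead, with 30 min donor-bead incubation at 25 °C in the dark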
Sequence (P16671 30-439 limits assumed): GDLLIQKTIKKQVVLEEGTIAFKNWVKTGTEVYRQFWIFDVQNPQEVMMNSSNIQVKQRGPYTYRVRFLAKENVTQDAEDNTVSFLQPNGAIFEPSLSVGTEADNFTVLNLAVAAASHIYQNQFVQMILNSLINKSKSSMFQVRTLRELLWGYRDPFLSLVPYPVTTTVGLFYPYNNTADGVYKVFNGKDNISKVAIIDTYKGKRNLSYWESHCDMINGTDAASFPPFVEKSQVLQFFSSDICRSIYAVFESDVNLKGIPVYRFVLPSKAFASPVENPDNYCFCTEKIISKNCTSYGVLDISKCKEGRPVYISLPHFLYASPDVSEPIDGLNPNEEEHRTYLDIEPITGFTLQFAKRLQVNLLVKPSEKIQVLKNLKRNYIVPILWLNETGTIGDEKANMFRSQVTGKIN
pEC50: recorded values
Note on units: pEC50 is unitless, being -log10 of a concentration expressed in mol/L.

Solved entries:
Prompt: Which value of pEC50 has been reported for 32G04 (antibody, human IgG1, V domains shown, Chimeric: mouse variable regions on human IgG1 LALA (L234A/L235A); also called 032G04) VH: EEKLEESGGGLVQPGGSMKLSCVASGFTFSNYWMNWVRQSPEKGLEWVAEIRLKSNNYATHYAESVKGRFTISRDDSKSSVYLQMNNLRAEDTGIYYCTPLLLRWGQGTTLTVSS VL: ENVLTQSPAIMSASPGEKVTMTCRASSSLSSTYLHWYQQKSGASPKLWIYSTSNLASGVPARFSGSGSGTSYSLTISSVEAEDAATYYCQQYSGYPLTFGSGTKLEIK in the records?
Response: 8.84

Prompt: Which value of pEC50 has been reported for 6G04 (antibody, human IgG1, V domains shown, Chimeric: mouse variable regions on human IgG1 LALA (L234A/L235A); also called 06G04; 006G04) VH: QVQLQQSGAELVMPGASVKMSCKASGYTFTDYWMHWVKQRPGQGLEWIGSIDTSDSYTTYSQKFKGKATLTVDESSSTAYMELARLTSEDSAIYYCVRGEDYEGTWFAYWGQGTLVTVSA VL: ETTVTQSPASLSVATGEKVTIRCITSTDIDDDMNWYQQKPGEPPKLLISEGNTLRPGVPSRFSSSGYGTDFVFTIENTLSEDVADYYCLQSDNMPLTFGAGTKLELK in the records?
Response: 8.94

Prompt: Which value of pEC50 has been reported for 7G04 (antibody, human IgG1, V domains shown, Chimeric: mouse variable regions on human IgG1 LALA (L234A/L235A); also called 07G04; 007G04) VH: QVQMKESGAELVRPGASVKLSCKALGYTFTDYEIQWVKQTPVHGLEWIGGIHPGSSGIVYNQKFKGKATLTADKSSSTAYMELSSLTSEDSAVYYCTRGGGYDGAWFAYWGQGSLVTVSA VL: ETTVTQSPASLSMAIGEKVTIRCITSTDIDDDMNWYQQKPGEPPKLLISEGNTLRPGVPSRFSSSGYGTDFVFTIENMLSEDVADYYCLQSDNLPFTFGSGTKLEIK in the records?
Response: 9.02

Prompt: Which value of pEC50 has been reported for 35G04 (antibody, human IgG1, V domains shown, Chimeric: chicken variable regions on human IgG1 LALA (L234A/L235A); also called 035G04) VH: AVTLDESGGGLQTPGGALSLVCKASGFTFSNYGMGWMRQAPGKGLEFVAKIYKDGGYTGYGAAVDGRATISRDDGQSTVRLQLNDLRAEDTATYFCAKAADSGYLYITDSIDAWGHGTEVIVSS VL: ALTQPSSVSANPGETVKITCSGGSGSYGWFQQKSPGNAPVTVIYHNDQRPSDIPSRFSGSKSGSTATLTITEVQADDEAVYVCGGYDNDNDAGIFGAGTTLTVL in the records?
Response: 9.18

# ---- query binder ----
Prompt: Which value of pEC50 has been reported for 5G04 (antibody, human IgG1, V domains shown, Chimeric: mouse variable regions on human IgG1 LALA (L234A/L235A); also called 05G04; 005G04) VH: QVQLQQSGAELVMPGASVKMSCKASGYTFTDYWMHWVKQRPGQGLEWIGAIDTSDSYTSYNQKFKGKATLTVDESSSTAYMQLSSLTSEDSAVYYCARDYYGSSTAWFAYWGQGTLVTVSA VL: ETTVTQSPASLSMAIGEKVTIRCITSTDIDDDMNWYQQKPGEPPKLLISEGNTLRPGVPSRFSSSGYGTDFVFTIDNMLSEDVADYYCLQSDNLPFTFGSGTKLEIK in the records?
Response: 10.70
